Test: Oral bioavailability of compound was determined in dogs upon 0.2 mg/kg administration
Format: ADME, organism-based, Canis lupus familiaris
Settings: dog, in vivo
Readout: bioavailability (%)
// note: answer is a bare numeric in %

For record CN(C)Cc1nccn1-c1ccc(NC(=O)c2cc(C(F)(F)F)nn2-c2ccc3onc(N)c3c2)c(F)c1.Cl [RAZAXABAN HYDROCHLORIDE] the listed bioavailability is 84

====

Biological target: Coagulation factor X (Homo sapiens, UniProt P00742)
Assay: Binding affinity against blood clotting factor X
Sequence (P00742 whole entry, looked up): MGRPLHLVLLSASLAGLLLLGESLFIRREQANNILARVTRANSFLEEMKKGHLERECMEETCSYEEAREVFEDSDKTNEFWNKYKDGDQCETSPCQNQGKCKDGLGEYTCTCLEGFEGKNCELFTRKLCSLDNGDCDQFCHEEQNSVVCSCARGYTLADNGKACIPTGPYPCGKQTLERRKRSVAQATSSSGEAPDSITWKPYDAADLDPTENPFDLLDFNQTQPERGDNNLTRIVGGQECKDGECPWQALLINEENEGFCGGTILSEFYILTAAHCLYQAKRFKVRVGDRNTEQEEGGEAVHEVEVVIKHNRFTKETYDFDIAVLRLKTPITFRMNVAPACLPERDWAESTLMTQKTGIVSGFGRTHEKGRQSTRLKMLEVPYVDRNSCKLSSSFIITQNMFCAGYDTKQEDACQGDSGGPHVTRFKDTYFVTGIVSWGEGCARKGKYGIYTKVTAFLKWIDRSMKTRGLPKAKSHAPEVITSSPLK
Readout: Ki (nM)
// note: answer is a bare numeric in nM

Record for CNCc1nccn1-c1ccc(NC(=O)c2cc(C(F)(F)F)nn2-c2ccc3onc(N)c3c2)c(F)c1 under target or system Coagulation factor X (Homo sapiens, UniProt P00742): Ki reported as 0.17

====

Assay: Steady state volume of distribution in dogs at 0.4 mg/kg intravenous administration
Format: ADME, organism-based, Canis lupus familiaris
Design: dose 0.4 mg/kg, route intravenous
Settings: dog, in vivo, read-out: Vdss
Readout: Vd
Quote the value and follow it with the unit of measurement.

For record CNCc1nccn1-c1ccc(NC(=O)c2cc(C(F)(F)F)nn2-c2ccc3onc(N)c3c2)c(F)c1 the listed Vd is 4.6 L/kg

====

Target: UniProt P17538
Sequence (P17538 34-164 limits assumed, other chains not shown): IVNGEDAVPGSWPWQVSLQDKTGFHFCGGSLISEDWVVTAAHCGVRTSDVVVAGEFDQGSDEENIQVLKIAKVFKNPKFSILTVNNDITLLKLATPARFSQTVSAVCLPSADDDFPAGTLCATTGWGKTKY
Sequence (P17538 167-263 limits assumed, other chains not shown): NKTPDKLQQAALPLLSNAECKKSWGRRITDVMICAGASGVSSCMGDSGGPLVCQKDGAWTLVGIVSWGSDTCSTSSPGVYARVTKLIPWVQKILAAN
Readout: Ki (nM)
// note: answer is a bare numeric in nM

Record for CS(=O)(=O)c1ccccc1-c1ccc(NC(=O)c2cc(C(F)(F)F)nn2-c2ccc3onc(N)c3c2)c(F)c1 under target or system UniProt P17538: Ki reported as 2300

====

Assay: Steady state volume of distribution in dogs upon 0.4 mg/kg intravenous administration
Format: ADME, organism-based, Canis lupus familiaris
Design: dose 0.4 mg/kg, route intravenous
Conditions: dog, in vivo, read-out: Vdss
Readout: Vd (L/kg)
// note: answer is a bare numeric in L/kg

For record CN(C)Cc1nccn1-c1ccc(NC(=O)c2cc(C(F)(F)F)nn2-c2ccc3onc(N)c3c2)c(F)c1.Cl [RAZAXABAN HYDROCHLORIDE] the listed Vd is 5.3

====

Assay: Clearance in dogs at 0.4 mg/kg intravenous administration
Assay type: ADME, organism-based, Canis lupus familiaris
Design: dose 0.4 mg/kg, route intravenous
Conditions: dog, in vivo
Readout: clearance (mL/min/kg)
// note: answer is a bare numeric in mL/min/kg

For record CNCc1nccn1-c1ccc(NC(=O)c2cc(C(F)(F)F)nn2-c2ccc3onc(N)c3c2)c(F)c1 the listed clearance is 18.3

====

Test: Half life period in dogs at 0.4 mg/kg intravenous administration
Format: ADME, organism-based, Canis lupus familiaris
Set-up: dose 0.4 mg/kg, route intravenous
Details: dog, in vivo
Readout: half-life (h)
// note: answer is a bare numeric in h

For record CNCc1nccn1-c1ccc(NC(=O)c2cc(C(F)(F)F)nn2-c2ccc3onc(N)c3c2)c(F)c1 the listed half-life is 3.7

====

Target: Coagulation factor XI (Homo sapiens)
Sequence (P03951 19-387 limits assumed): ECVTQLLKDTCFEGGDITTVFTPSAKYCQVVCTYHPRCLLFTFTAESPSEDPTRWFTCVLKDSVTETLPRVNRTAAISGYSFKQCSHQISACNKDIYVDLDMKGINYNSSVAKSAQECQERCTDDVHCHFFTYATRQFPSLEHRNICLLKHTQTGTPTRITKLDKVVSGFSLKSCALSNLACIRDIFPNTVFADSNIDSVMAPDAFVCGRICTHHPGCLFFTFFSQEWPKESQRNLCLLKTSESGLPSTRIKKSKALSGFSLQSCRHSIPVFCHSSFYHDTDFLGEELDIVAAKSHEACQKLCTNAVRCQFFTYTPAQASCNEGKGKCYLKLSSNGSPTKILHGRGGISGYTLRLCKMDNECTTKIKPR
Sequence (P03951 388-625 limits assumed): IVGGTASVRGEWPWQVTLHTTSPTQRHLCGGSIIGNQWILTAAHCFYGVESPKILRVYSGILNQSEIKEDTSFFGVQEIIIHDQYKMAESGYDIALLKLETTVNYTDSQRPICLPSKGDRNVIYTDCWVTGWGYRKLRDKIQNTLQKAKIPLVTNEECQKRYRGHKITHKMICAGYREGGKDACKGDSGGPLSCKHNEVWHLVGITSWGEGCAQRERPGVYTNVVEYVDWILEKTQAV
Readout: Ki

Record for CN(C)Cc1nccn1-c1ccc(NC(=O)c2cc(C(F)(F)F)nn2-c2ccc3onc(N)c3c2)c(F)c1.Cl [RAZAXABAN HYDROCHLORIDE] under target or system Coagulation factor XI (Homo sapiens): Ki reported as > 12 µM

====

pKi: −log10 of the molar value.
As a worked illustration, we turn to pKi data collected for Serine protease 1 (Homo sapiens, UniProt P07477).

Worked examples follow.
Nc1noc2ccc(-n3nc(C(F)(F)F)cc3C(=O)Nc3ccc(-c4ccccc4S(N)(=O)=O)cc3F)cc12 = < 5.80
Nc1noc2ccc(-n3nc(C(F)(F)F)cc3C(=O)Nc3ccc(N4CCOCC4)cc3F)cc12 = < 5.28
CS(=O)(=O)c1ccccc1-c1ccc(NC(=O)c2cc(C(F)(F)F)nn2-c2ccc3onc(N)c3c2)c(F)c1 = < 5.28
Cn1ccnc1-c1ccc(NC(=O)c2cc(C(F)(F)F)nn2-c2ccc3onc(N)c3c2)c(F)c1 = < 5.60

For record Nc1noc2ccc(-n3nc(C(F)(F)F)cc3C(=O)Nc3ccc(-c4ccncc4S(N)(=O)=O)cc3F)cc12 the listed pKi is < 5.38

For record Nc1noc2ccc(-n3nc(C(F)(F)F)cc3C(=O)Nc3ccc(C(=O)N4CCCC4)cc3F)cc12 the listed pKi is < 5.28

====

As a worked illustration, we turn to Ki data collected for Prothrombin (Homo sapiens, UniProt P00734).
// note: answer is a bare numeric in µM

Nc1noc2ccc(-n3nc(C(F)(F)F)cc3C(=O)Nc3ccc(C(=O)N4CCCC4)cc3F)cc12 = 8
Cn1ccnc1-c1ccc(NC(=O)c2cc(C(F)(F)F)nn2-c2ccc3onc(N)c3c2)c(F)c1 = 0.034

For record CS(=O)(=O)c1ccccc1-c1ccc(NC(=O)c2cc(C(F)(F)F)nn2-c2ccc3onc(N)c3c2)c(F)c1 the listed Ki is 6.3

For record Nc1noc2ccc(-n3nc(C(F)(F)F)cc3C(=O)Nc3ccc(-c4ccccc4S(N)(=O)=O)cc3F)cc12 the listed Ki is 2.3

For record Nc1noc2ccc(-n3nc(C(F)(F)F)cc3C(=O)Nc3ccc(-c4ccncc4S(N)(=O)=O)cc3F)cc12 the listed Ki is 0.74

For record CNCc1nccn1-c1ccc(NC(=O)c2cc(C(F)(F)F)nn2-c2ccc3onc(N)c3c2)c(F)c1 the listed Ki is 1.7

For record Cc1nccn1-c1ccc(NC(=O)c2cc(C(F)(F)F)nn2-c2ccc3onc(N)c3c2)cc1 the listed Ki is 1.1

====

Biological target: Coagulation factor X (Homo sapiens)
Assay: Binding affinity against human Coagulation factor Xa
Sequence (P00742 41-179 limits assumed): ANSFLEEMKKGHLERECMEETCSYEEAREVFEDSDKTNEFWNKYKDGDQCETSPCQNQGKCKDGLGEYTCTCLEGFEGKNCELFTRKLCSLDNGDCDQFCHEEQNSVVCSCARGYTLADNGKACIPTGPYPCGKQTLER
Sequence (P00742 235-488 limits assumed): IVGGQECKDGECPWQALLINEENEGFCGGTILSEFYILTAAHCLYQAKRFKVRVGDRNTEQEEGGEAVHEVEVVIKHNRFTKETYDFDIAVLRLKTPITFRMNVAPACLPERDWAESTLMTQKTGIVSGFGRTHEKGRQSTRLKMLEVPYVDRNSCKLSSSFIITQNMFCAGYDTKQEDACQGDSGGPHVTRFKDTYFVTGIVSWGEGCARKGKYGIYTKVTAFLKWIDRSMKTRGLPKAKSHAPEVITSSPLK
Readout: log10(Ki) (log10 of the value in nM)
Use the decimal logarithm of Ki (nM).

For record CC(C)c1nccn1-c1ccc(NC(=O)c2cc(C(F)(F)F)nn2-c2ccc3onc(N)c3c2)c(F)c1 the listed log10(Ki) is 0.20

For record NCc1nccn1-c1ccc(NC(=O)c2cc(C(F)(F)F)nn2-c2ccc3onc(N)c3c2)c(F)c1 the listed log10(Ki) is 0.48

====

Biological target: UniProtKB P04070
Sequence (P04070 43-197 limits assumed): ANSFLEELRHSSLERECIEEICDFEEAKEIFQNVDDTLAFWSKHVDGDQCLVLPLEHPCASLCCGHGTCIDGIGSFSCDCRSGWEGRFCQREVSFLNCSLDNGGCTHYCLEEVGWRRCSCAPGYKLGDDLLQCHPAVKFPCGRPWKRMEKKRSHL
Sequence (P04070 212-461 limits assumed): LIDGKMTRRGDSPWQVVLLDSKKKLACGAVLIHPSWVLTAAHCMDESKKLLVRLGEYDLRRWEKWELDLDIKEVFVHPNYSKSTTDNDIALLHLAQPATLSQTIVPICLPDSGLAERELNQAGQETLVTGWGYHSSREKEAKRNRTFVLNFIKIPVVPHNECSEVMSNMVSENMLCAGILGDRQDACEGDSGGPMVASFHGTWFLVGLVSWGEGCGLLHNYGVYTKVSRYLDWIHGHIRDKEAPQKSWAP
Experiment: Binding affinity determined against human activated protein C
Readout: Ki (µM)
// note: answer is a bare numeric in µM

CS(=O)(=O)c1ccccc1-c1ccc(NC(=O)c2cc(C(F)(F)F)nn2-c2ccc3onc(N)c3c2)c(F)c1 = 28

Read the next record carefully.
Record for CN(C)Cc1nccn1-c1ccc(NC(=O)c2cc(C(F)(F)F)nn2-c2ccc3onc(N)c3c2)c(F)c1.Cl [RAZAXABAN HYDROCHLORIDE] under target or system UniProtKB P04070: Ki reported as 19.7

====

Target: UniProt:P00749
pKi: −log10 of the molar value.
Readout: pKi

Record for CS(=O)(=O)c1ccccc1-c1ccc(NC(=O)c2cc(C(F)(F)F)nn2-c2cccc(CN)c2)c(F)c1 under target or system UniProt:P00749: pKi reported as < 4.77

====

Molecular target: Coagulation factor X (Homo sapiens, UniProt P00742)
Assay: Binding affinity against human Coagulation factor Xa
In this section, each of the compounds is paired with its reported log10 Ki.
Use the decimal logarithm of Ki (nM).

COc1cc(-n2ccnc2C)ccc1NC(=O)c1cc(C(F)(F)F)nn1-c1ccc2onc(N)c2c1 = 0.45
CCc1nccn1-c1ccc(NC(=O)c2cc(C(F)(F)F)nn2-c2ccc3onc(N)c3c2)c(F)c1 = -0.14
CNCc1nccn1-c1ccc(NC(=O)c2cc(C(F)(F)F)nn2-c2ccc3onc(N)c3c2)c(F)c1 = -0.77
Cc1nccn1-c1ccc(NC(=O)c2cc(C(F)(F)F)nn2-c2ccc3onc(N)c3c2)cc1 = -0.22
Nc1noc2ccc(-n3nc(C(F)(F)F)cc3C(=O)Nc3ccc(-c4ccccc4S(N)(=O)=O)cc3F)cc12 = -0.80

For record Nc1noc2ccc(-n3nc(C(F)(F)F)cc3C(=O)Nc3ccc(C(=O)N4CCCC4)cc3F)cc12 the listed log10 Ki is -0.04

For record Nc1noc2ccc(-n3nc(C(F)(F)F)cc3C(=O)Nc3ccc(-n4ccnc4CO)cc3F)cc12 the listed log10 Ki is 0.00

For record Cc1nccn1-c1ccc(NC(=O)c2cc(C(F)(F)F)nn2-c2ccc3onc(N)c3c2)c(C#N)c1 the listed log10 Ki is -0.28

For record Cn1ccnc1-c1ccc(NC(=O)c2cc(C(F)(F)F)nn2-c2ccc3onc(N)c3c2)c(F)c1 the listed log10 Ki is -0.29

====

Target: Coagulation factor X (Homo sapiens, UniProt P00742)
Test: Binding affinity against human Coagulation factor Xa
In this section, each of the molecules is paired with its reported log10 Ki.
Use the decimal logarithm of Ki (nM).

Cc1nccn1-c1ccc(NC(=O)c2cc(C(F)(F)F)nn2-c2ccc3onc(N)c3c2)c(-n2ccnc2C)c1 = 0.20

For record Cc1nccn1-c1ccc(NC(=O)c2cc(C(F)(F)F)nn2-c2ccc3onc(N)c3c2)c(F)c1 the listed log10 Ki is -0.15

For record CS(=O)(=O)c1ccccc1-c1ccc(NC(=O)c2cc(C(F)(F)F)nn2-c2ccc3onc(N)c3c2)c(F)c1 the listed log10 Ki is -1.05

For record Nc1noc2ccc(-n3nc(C(F)(F)F)cc3C(=O)Nc3ccc(-c4ccncc4S(N)(=O)=O)cc3F)cc12 the listed log10 Ki is -1.00

For record Nc1noc2ccc(-n3nc(C(F)(F)F)cc3C(=O)Nc3ccc(N4CCOCC4)cc3F)cc12 the listed log10 Ki is 0.80

For record Cc1nccn1-c1ccc(NC(=O)c2cc(C(F)(F)F)nn2-c2ccc3onc(N)c3c2)c(C(N)=O)c1 the listed log10 Ki is 0.89

For record Nc1noc2ccc(-n3nc(C(F)(F)F)cc3C(=O)Nc3ccc(-n4ccnc4CN4CCCC4)cc3F)cc12 the listed log10 Ki is -0.43

Numbers sourced from ChEMBL document CHEMBL1145195.
